Test system: HaCat
Assay: Cytotoxic Profiling of Annotated Libraries Using Quantitative High-Throughput Screening (AID 1296008); further: on the % scale 0 is the no-effect control and ±100 the full control effect; nearly all actives have a fitted effect of over 60% in size
Settings: Five cell lines viability, CellTiter-Glo ATP luminescence, 48-72 h; stronger effect = lower value
Experimental: Cell-based phenotypic screening is a commonly used approach to discover biological pathways, novel drug targets, chemical probes and high-quality hit-to-lead molecules. […] A pintool (Kalypsys) was used to transfer 23 nL of compound solution to the 1536-well assay plates. […] Plates were left at room temperature for 10 min before imaging the ATP-coupled luminescence using a ViewLux microplate imager (PerkinElmer, Waltham, MA).
Inconclusive results are not listed. Activity calls are given as the source filed them. The call rests on the fitted dose curve; in most records, active means well fitted inhibition curve with a large enough effect; inconclusive means small, poorly fitted or top-dose-only effect; inactive means flat fitted curve, though single readings scatter.

compound | max response
c1cc(CN2CCCNCCNCCCNCC2)ccc1CN1CCCNCCNCCCNCC1 | -12.9% (inactive)
CC(C)OC(=O)[C@H](C)N[P@](=O)(OC[C@H]1O[C@@H](n2ccc(=O)[nH]c2=O)[C@](C)(F)[C@H]1O)Oc1ccccc1 | -9.66% (inactive)
Cc1cc(C(=O)NOCCO)c(Nc2ccc(I)cc2F)n(C)c1=O | -66.6% (inactive)
C[N+](C)([O-])CCNc1ccc(NCC[N+](C)(C)[O-])c2c1C(=O)c1c(O)ccc(O)c1C2=O | -8.98% (inactive)
CC(O)(C#Cc1ccc2c(c1)N(c1nc(N)ncc1Cl)CC2)c1nccs1 (centres undefined) | -12.6% (inactive)
CCOC(=O)N1CCN([N+]([O-])=NOc2ccc([N+](=O)[O-])cc2[N+](=O)[O-])CC1 | 3.57% (inactive)
O=C(O)C=Cc1ccc(Cn2ccnc2)cc1 | -0.523% (inactive)
C[C@H]1O[C@H](O[C@H]2[C@H](O)[C@@H](O)[C@@H](O[C@H]3[C@H](O)[C@@H](O)C(O)O[C@H]3CO)O[C@H]2CO)[C@H](O)[C@@H](O)[C@H]1N[C@H]1C=C(CO)[C@@H](O)[C@H](O)[C@@H]1O (some centres undefined) | -16.9% (inactive)
COc1ccc(Nc2nccc(NCCO)n2)cc1 | 0.234% (inactive)
CC(C)(C)[N+]([O-])=Cc1ccc(S(=O)(=O)O)cc1S(=O)(=O)O | -17.9% (inactive)
CC[C@H]1OC(=O)[C@H](C)[C@@H](O[C@H]2C[C@@](C)(OC)[C@@H](O)[C@H](C)O2)[C@H](C)[C@@H](O[C@@H]2O[C@H](C)C[C@H](N(C)C)[C@@H]2O)[C@](C)(OC)C[C@@H](C)C(=O)[C@H](C)[C@@H](O)[C@]1(C)O | 3.25% (inactive)
Cc1cn([C@@H]2O[C@H](CO)[C@@H](O)[C@H]2F)c(=O)[nH]c1=O | -13.3% (inactive)
NC(=O)c1ncn([C@@H]2O[C@H](CO)[C@@H](O)[C@@H]2O)c1O | 4.1% (inactive)
CC(C)(O)CC[C@@H](O)[C@](C)(O)[C@H]1CC[C@@]2(O)C3=CC(=O)[C@@H]4C[C@@H](O)[C@@H](O)C[C@]4(C)[C@@H]3CC[C@]12C | -11.3% (inactive)

###

Experiment: qHTS profiling of the MIPE4 collection as inhibitors of Plasmodium falciparum (3D7) proliferation (AID 743344);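 further: scaled between DMSO vehicle wells and 0.29 µM artemisinin as full inhibition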
Conditions: P. falciparum 3D7 in erythrocytes, SYBR Green DNA fluorescence, 72 h; at 28.5 µM (top of the series) unless noted
If the reported parasite growth, % of DMSO control equals or exceeds 30%, assign fulfilled. If not, assign not fulfilled.

compound | labelClass
N#Cc1ccc(COC[C@H]2O[C@@H](n3c(NCc4ccc(Cl)c(Cl)c4)nc4c(N)ncnc43)[C@@H](O)[C@@H]2O)cc1 | not fulfilled
CCOC(=O)[C@@H](N)Cc1ccc(-c2cc(O[C@H](c3ccc(Cl)cc3-n3ccc(C)n3)C(F)(F)F)nc(N)n2)cc1 | not fulfilled
CC1=C(C(=O)Nc2cc3cn[nH]c3cc2F)C(c2ccc(Cl)cc2F)N=C(c2ccnc(Cl)c2)N1 (stereo unspecified) | not fulfilled
O=C(c1ccc(F)cc1)N1CCC[C@H](c2nc(-c3ccc(F)cc3)no2)C1 | fulfilled
CN(C)c1ccc(C(=O)NCCCCCCC(=O)NO)cc1 | not fulfilled

###

max response for assorted compounds
Test system: CRL-7250
Test: Cytotoxic Profiling of Annotated Libraries Using Quantitative High-Throughput Screening (AID 1296008); further: on the % scale 0 is the no-effect control and ±100 the full control effect; nearly all actives have a fitted effect of over 60% in size
Settings: Five cell lines viability, CellTiter-Glo ATP luminescence, 48-72 h; stronger effect = lower value
Records with an inconclusive call do not appear. Starred links: 1 amine or outer side, 2 acyl side, 3 side chain; linkers in the order of their positions; H or OH if unused. Positions of bridges follow the written chain, without caps; N, C: chain ends. Non-standard residues stand in square brackets, D forms with d. Residues, ends and D or L forms follow the SMILES beside them. Chains are numbered I, II in the order given. Actinocin(9to1) = Cc1c2oc3c(C)ccc(C(=O)[*:1])c3nc-2c(C(=O)[*:2])c(N)c1=O; NMeV = CN[CH](C(=O)O)C(C)C; Sar = CNCC(=O)O

compound | target | unitString | max response
C#C[C@]1(O)CC[C@@H]2[C@@H]3CCc4cc(O)ccc4[C@H]3CC[C@@]21C | CRL-7250 | % | -14.3
Cc1cnc(NC(=O)Nc2cc(Br)c(C)cc2OC[C@@H]2CNCCO2)cn1 | CRL-7250 | % | -18.7
COC(=O)[C@@H]1CC2=CC(=O)CC[C@]2(C)[C@@]23O[C@@H]2C[C@@]2(C)[C@H](CC[C@@]24CCC(=O)O4)[C@@H]13 | CRL-7250 | % | -3.2
C[C@H]1C[C@H]2[C@@H]3CCC4=CC(=O)C=C[C@]4(C)[C@@H]3C(=O)C[C@]2(C)[C@@]1(O)C(=O)CO | CRL-7250 | % | -3.73
CC(=O)NC(CS)C(=O)O (configuration not stated) | CRL-7250 | % | 1.57
Cc1c2oc3c(C)ccc(C(=O)NC4C(=O)NC(C(C)C)C(=O)N5CCCC5C(=O)N(C)CC(=O)N(C)C(C(C)C)C(=O)OC4C)c3nc-2c(C(=O)NC2C(=O)NC(C(C)C)C(=O)N3CCCC3C(=O)N(C)CC(=O)N(C)C(C(C)C)C(=O)OC2C)c(N)c1=O (configuration not stated) (I: TVP[Sar][NMeV] / II: TVP[Sar][NMeV]; ester I:1-I:C, II:1-II:C; linker I:N-II:N via Actinocin(9to1); configuration not given here) | CRL-7250 | % | -99.9
CC(=O)OC[C@@H]1O[C@@H](n2ccc(=O)[nH]c2=O)[C@H](OC(C)=O)[C@H]1OC(C)=O | CRL-7250 | % | -3.38
CC(=O)O[C@H]1C[C@@H]2CC[C@H]3[C@H]4C[C@H]([N+]5(C)CCCCC5)[C@@H](OC(C)=O)[C@@]4(C)CC[C@@H]3[C@@]2(C)C[C@H]1[N+]1(C)CCCCC1 | CRL-7250 | % | 0.398
CCOC(=O)[C@@H](N)Cc1ccc(-c2cc(O[C@H](c3ccc(Cl)cc3-n3ccc(C)n3)C(F)(F)F)nc(N)n2)cc1 | CRL-7250 | % | -8.01
CC(=O)SCC(Cc1ccccc1)C(=O)NCC(=O)OCc1ccccc1 (configuration not stated) | CRL-7250 | % | -7.71
O=C(C=CC=Cc1ccc2c(c1)OCO2)N1CCCCC1 | CRL-7250 | % | -3.96
O=C1CSC(=O)N1C(CCc1ccncc1)COc1ccc(-c2cccc([N+](=O)[O-])c2)cc1 (configuration not stated) | CRL-7250 | % | -33.8

###

Assay: Quantitative High-Throughput drug screen in 47 multiple myeloma cell lines against the NCATS MIPE library collection: LP1_DSMZ cell viability assay (AID 1918982); further: nearly all actives have a fitted effect of over 35% in size
Conditions: LP1 myeloma viability, CellTiter-Glo ATP luminescence, 48 h; series mostly up to 45.8 µM
Results filed as inconclusive are left out. Activity calls are given as the source filed them. Calls follow the shape of the dose curve; as a rule, active = well fitted cell-killing curve with a large enough effect; inconclusive = small, poorly fitted or top-dose-only effect, or effect the other way; inactive = no such curve, though single readings can be large or run the other way.
Labels: active, inactive

compound | labelClass
O=c1[nH]c(=O)n([C@H]2C[C@@H](O)[C@@H](CO)O2)cc1C=CBr | inactive
c1coc(CNc2ncnc3nc[nH]c23)c1 | inactive
O=C(C=Cc1ccc(CN(CCO)CCc2c[nH]c3ccccc23)cc1)NO | active
COc1cc(OC)cc(-c2ccc3ncc4ccc(=O)n(-c5ccc(N6CCNCC6)c(C(F)(F)F)c5)c4c3c2)c1 | active
CN(C)CC(=O)N1CCC(c2ccc(NC(=O)c3ncc(C#N)[nH]3)c(C3=CCCCC3)c2)CC1 | inactive
Cn1cc(C2=C(c3c4n(c5ccccc35)CCC(CN)C4)C(=O)NC2=O)c2ccccc21 (centres undefined) | active
C#CCC(Cc1cnc2nc(N)nc(N)c2n1)c1ccc(C(=O)N[C@@H](CCC(=O)O)C(=O)O)cc1 (some centres undefined) | active
O=C(C=CC=Cc1ccc2c(c1)OCO2)N1CCCCC1 | inactive
CC(C)c1cc(C(C)C)c(CC(=O)NS(=O)(=O)Oc2c(C(C)C)cccc2C(C)C)c(C(C)C)c1 | active
CCc1cnn2c(NCc3ccc[n+]([O-])c3)cc(N3CCCC[C@@H]3CCO)nc12 | active
C[C@@H](NCc1cc2ccccc2[nH]1)c1cccc2ccccc12 | inactive
COC1=C(OC)C(=O)C(CC=C(C)CCC=C(C)CCC=C(C)CCC=C(C)CCC=C(C)CCC=C(C)CCC=C(C)CCC=C(C)CCC=C(C)CCC=C(C)C)=C(C)C1=O | inactive
CN(C)CCN1C(=O)c2cccc3cc(N)cc(c23)C1=O | active
Cc1noc(-c2ccc(CSCCC(=O)O)cc2)c1NC(=O)OC(C)c1ccccc1Cl (centres undefined) | inactive
C=CC[C@@H]1C=C(C)C[C@H](C)C[C@H](OC)[C@H]2O[C@@](O)(C(=O)C(=O)N3CCCC[C@H]3C(=O)O[C@H](C(C)=C[C@@H]3CC[C@H](O)[C@H](OC)C3)[C@@H](C)[C@@H](O)CC1=O)[C@@H](C)C[C@@H]2OC | active
CON=C(C(=O)N[C@@H]1C(=O)N2C(C(=O)O)=C(Cn3ccc(=N)n3CCO)CS[C@H]12)c1csc(N)n1 | inactive
C=C[C@@H]1CN2CCC1C[C@H]2[C@H](O)c1ccnc2ccc(OC)cc12 (some centres undefined) | inactive
CC[C@@]1([C@@H]2O[C@@H]([C@H]3O[C@@](O)(CO)[C@H](C)C[C@H]3C)C[C@H]2C)CC[C@H]([C@]2(C)CC[C@]3(C[C@H](O)[C@@H](C)[C@@H]([C@@H](C)[C@@H](OC)[C@H](C)C(=O)O)O3)O2)O1 | active
C[C@H](NC(=O)C(C#N)=Cc1cccc(Br)n1)c1ccccc1 | active
